TEST_READOUT: pIC50
Note on pIC50: it is the negative log10 of concentration, concentration in mol/L.

Query the reported pIC50 for h-11βHSD1 (Homo sapiens); item: c1ccc(OCc2ccccc2-c2nnc3n2CCCCC3)cc1
6.96
